Molecular target: GST-tagged GDP-loaded KRAS G12V (amino acids 1-169) (Homo sapiens, UniProt P01116, G12V)
Construct: GST-tagged GDP-loaded KRAS G12V (amino acids 1-169)
Sequence (P01116 1-169 isoform P01116-2 G12V): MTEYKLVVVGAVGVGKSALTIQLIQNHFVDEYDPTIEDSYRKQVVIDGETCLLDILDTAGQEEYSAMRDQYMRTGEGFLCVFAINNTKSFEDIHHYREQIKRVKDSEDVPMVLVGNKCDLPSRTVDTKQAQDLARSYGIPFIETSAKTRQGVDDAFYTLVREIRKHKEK
Assay: KRAS G12V probe displacement assay (TR-FRET)
Settings: displacement of biotinylated probe 2 from GDP-loaded KRAS G12V
readoutName: IC50

Prompt: Request - read-out IC50 | tested on GST-tagged GDP-loaded KRAS G12V (amino acids 1-169) (Homo sapiens, UniProt P01116, G12V) | compound COc1cc(N)nc(-c2c(Cl)cc3c(N4CCC(C#N)CC4)nc(OC[C@@]45CCCN4C[C@H](F)C5)nc3c2F)c1C(F)(F)F [Example 108]
Completion: > 1000 nM

Prompt: Request - read-out IC50 | tested on GST-tagged GDP-loaded KRAS G12V (amino acids 1-169) (Homo sapiens, UniProt P01116, G12V) | compound CC1CN(c2nc(OC[C@@]34CCCN3C[C@H](F)C4)nc3c(F)c(-c4ccc(F)c5sc(N)nc45)c(C(F)(F)F)cc23)CCC1C#N (stereo partly drawn) [Example 73]
Completion: 6.8 nM

Next, consider the following compound.
Prompt: Request - read-out IC50 | tested on GST-tagged GDP-loaded KRAS G12V (amino acids 1-169) (Homo sapiens, UniProt P01116, G12V) | compound CS(=O)(=O)C1CN(c2nc(OC[C@@]34CCCN3C[C@H](F)C4)nc3c(F)c(-c4ccc(F)c5sc(N)nc45)c(C(F)(F)F)cc23)C1 [Example 44]
Completion: 14 nM

###

In this section, each of the compounds is paired with its reported IC50.
Target: GST-tagged GDP-loaded KRAS G12V (amino acids 1-169) (Homo sapiens, UniProt P01116, G12V)
Construct: GST-tagged GDP-loaded KRAS G12V (amino acids 1-169)
Experiment: KRAS G12V probe displacement assay (TR-FRET)
Settings: displacement of biotinylated probe 2 from GDP-loaded KRAS G12V
The response must be a number in nM with no trailing unit.

See these solved cases before continuing.
Prompt: Request - read-out IC50 | tested on GST-tagged GDP-loaded KRAS G12V (amino acids 1-169) (Homo sapiens, UniProt P01116, G12V) | compound Nc1nc2c(-c3c(C(F)(F)F)cc4c(N5CCCC(O)CC5)nc(OC[C@@]56CCCN5C[C@H](F)C6)nc4c3F)ccc(F)c2s1 (stereo partly drawn)
Completion: 0.98

Prompt: Request - read-out IC50 | tested on GST-tagged GDP-loaded KRAS G12V (amino acids 1-169) (Homo sapiens, UniProt P01116, G12V) | compound Nc1nc2c(-c3c(C(F)(F)F)cc4c(N5CCC5)nc(OC[C@@]56CCCN5C[C@H](F)C6)nc4c3F)ccc(F)c2s1
Completion: 2.6

Prompt: Request - read-out IC50 | tested on GST-tagged GDP-loaded KRAS G12V (amino acids 1-169) (Homo sapiens, UniProt P01116, G12V) | compound N#CCCC1CN(c2nc(OC[C@@]34CCCN3C[C@H](F)C4)nc3c(F)c(-c4ccc(F)c5sc(N)nc45)c(C(F)(F)F)cc23)C1
Completion: 12

Prompt: Request - read-out IC50 | tested on GST-tagged GDP-loaded KRAS G12V (amino acids 1-169) (Homo sapiens, UniProt P01116, G12V) | compound Nc1cc(Cl)c(C(F)(F)F)c(-c2ncc3c(NC4CCC4)nc(OC[C@@]45CCCN4C[C@H](F)C5)nc3c2F)c1
Completion: 40

Prompt: Request - read-out IC50 | tested on GST-tagged GDP-loaded KRAS G12V (amino acids 1-169) (Homo sapiens, UniProt P01116, G12V) | compound Nc1nc2c(-c3c(C(F)(F)F)cc4c(N5CC(CO)C5)nc(OC[C@@]56CCCN5C[C@H](F)C6)nc4c3F)ccc(F)c2s1
Completion: 4.1

Next, consider the following compound.
Prompt: Request - read-out IC50 | tested on GST-tagged GDP-loaded KRAS G12V (amino acids 1-169) (Homo sapiens, UniProt P01116, G12V) | compound CC1(O)CN(c2nc(OC[C@@]34CCCN3C[C@H](F)C4)nc3c(F)c(-c4ccc(F)c5sc(N)nc45)c(C(F)(F)F)cc23)C1
Completion: 7.1

###

In this section, each of the molecules is paired with its reported IC50.
Molecular target: GST-tagged GDP-loaded KRAS G12V (amino acids 1-169) (Homo sapiens, UniProt P01116, G12V)
Construct: GST-tagged GDP-loaded KRAS G12V (amino acids 1-169)
Assay: KRAS G12V probe displacement assay (TR-FRET)
Settings: displacement of biotinylated probe 2 from GDP-loaded KRAS G12V
Experimental: KRAS WT and KRAS G12V Probe Displacement Assay This assay was used to identify compounds which bind to GDP-loaded KRAS protein and are able to displace a biotinylated probe occupying the KRAS binding site. […] The TR-FRET signals (ex337 nm, em665 nm/620 nm) were read on BMG PHERAstar FSX instrument. The inhibition percentage of KRAS protein binding with biotinylated probe in presence of increasing concentrations of compounds was calculated based on the ratio of fluorescence at 665 nm to that at 620 nm. […]
The response must be a number in nM with no trailing unit.

See these solved cases before continuing.
Prompt: Request - read-out IC50 | tested on GST-tagged GDP-loaded KRAS G12V (amino acids 1-169) (Homo sapiens, UniProt P01116, G12V) | molecule Nc1nc2c(-c3c(C(F)(F)F)cc4c(NC5CC5)nc(OC[C@@]56CCCN5C[C@H](F)C6)nc4c3F)ccc(F)c2s1
Completion: 4.2

Prompt: Request - read-out IC50 | tested on GST-tagged GDP-loaded KRAS G12V (amino acids 1-169) (Homo sapiens, UniProt P01116, G12V) | molecule CC1(C#N)CCN(c2nc(OC[C@@]34CCCN3C[C@H](F)C4)nc3c(F)c(-c4ccc(F)c5sc(N)nc45)c(C(F)(F)F)cc23)CC1
Completion: 17

Prompt: Request - read-out IC50 | tested on GST-tagged GDP-loaded KRAS G12V (amino acids 1-169) (Homo sapiens, UniProt P01116, G12V) | molecule CC1(C#N)CN(c2nc(OC[C@@]34CCCN3C[C@H](F)C4)nc3c(F)c(-c4ccc(F)c5sc(N)nc45)c(C(F)(F)F)cc23)C1
Completion: 70

Prompt: Request - read-out IC50 | tested on GST-tagged GDP-loaded KRAS G12V (amino acids 1-169) (Homo sapiens, UniProt P01116, G12V) | molecule CN1CC2(CCN(c3nc(OC[C@@]45CCCN4C[C@H](F)C5)nc4c(F)c(-c5ccc(F)c6sc(N)nc56)c(C(F)(F)F)cc34)CC2)OC1=O
Completion: 0.77

Prompt: Request - read-out IC50 | tested on GST-tagged GDP-loaded KRAS G12V (amino acids 1-169) (Homo sapiens, UniProt P01116, G12V) | molecule Nc1nc2c(-c3c(C(F)(F)F)cc4c(N[C@H]5C[C@@H](F)C5)nc(OC[C@@]56CCCN5C[C@H](F)C6)nc4c3F)ccc(F)c2s1
Completion: 17

Next, consider the following molecule.
Prompt: Request - read-out IC50 | tested on GST-tagged GDP-loaded KRAS G12V (amino acids 1-169) (Homo sapiens, UniProt P01116, G12V) | molecule Nc1nc2c(-c3c(C(F)(F)F)cc4c(N5CCCCCC5)nc(OC[C@@]56CCCN5C[C@H](F)C6)nc4c3F)ccc(F)c2s1
Completion: 4.9

###

Target: GST-tagged GDP-loaded KRAS G12V (amino acids 1-169) (Homo sapiens, UniProt P01116, G12V)
Construct: GST-tagged GDP-loaded KRAS G12V (amino acids 1-169)
Assay: KRAS G12V probe displacement assay (TR-FRET)
Conditions: displacement of biotinylated probe 2 from GDP-loaded KRAS G12V
pIC50: −log10 of the molar value.
So basically: pIC50 at 8 or higher? That is criterion met. Lower than 8? That is criterion not met.

A selection of reference data follows.
Prompt: Reported pIC50 reaches at least 8 for CC1CC(C#N)CCN1c1nc(OC[C@@]23CCCN2C[C@H](F)C3)nc2c(F)c(-c3ccc(F)c4sc(N)nc34)c(C(F)(F)F)cc12 (relative stereo) ?
Completion: criterion met

Prompt: Reported pIC50 reaches at least 8 for Nc1nc2c(-c3c(C(F)(F)F)cc4c(N5CCC6(CC5)CNC(=O)C6)nc(OC[C@@]56CCCN5C[C@H](F)C6)nc4c3F)ccc(F)c2s1 ?
Completion: criterion met

Prompt: Reported pIC50 reaches at least 8 for Nc1nc2c(-c3c(C(F)(F)F)cc4c(N5CC[C@H](O)C5)nc(OC[C@@]56CCCN5C[C@H](F)C6)nc4c3F)ccc(F)c2s1 ?
Completion: criterion met

Prompt: Reported pIC50 reaches at least 8 for CC1CN(c2nc(OC[C@@]34CCCN3C[C@H](F)C4)nc3c(F)c(-c4cc(N)cc(Cl)c4C(F)(F)F)ncc23)CCO1 (stereo partly drawn) ?
Completion: criterion not met

Prompt: Reported pIC50 reaches at least 8 for CO[C@H]1C[C@@H](Nc2nc(OC[C@@]34CCCN3C[C@H](F)C4)nc3c(F)c(-c4ccc(F)c5sc(N)nc45)c(C(F)(F)F)cc23)C1 ?
Completion: criterion not met

Prompt: Reported pIC50 reaches at least 8 for Nc1nc2c(-c3c(C(F)(F)F)cc4c(N[C@H]5[C@@H]6COC[C@@H]65)nc(OC[C@@]56CCCN5C[C@H](F)C6)nc4c3F)ccc(F)c2s1 ?
Completion: criterion met

Prompt: Reported pIC50 reaches at least 8 for Nc1nc2c(-c3c(C(F)(F)F)cc4c(N5CCC6(CC5)CN(CC(F)F)C(=O)O6)nc(OC[C@@]56CCCN5C[C@H](F)C6)nc4c3F)ccc(F)c2s1 ?
Completion: criterion met

Prompt: Reported pIC50 reaches at least 8 for Nc1nc2c(-c3c(C(F)(F)F)cc4c(NC56CC(C5)C6)nc(OC[C@@]56CCCN5C[C@H](F)C6)nc4c3F)ccc(F)c2s1 ?
Completion: criterion not met

Prompt: Reported pIC50 reaches at least 8 for Nc1cc(Cl)c(C(F)(F)F)c(-c2ncc3c(N4CCC(O)CC4)nc(OC[C@@]45CCCN4C[C@H](F)C5)nc3c2F)c1 ?
Completion: criterion not met

Prompt: Reported pIC50 reaches at least 8 for Nc1nc2c(-c3c(Cl)cc4c(NC5CC5)nc(OC[C@@]56CCCN5C[C@H](F)C6)nc4c3F)ccc(F)c2s1 ?
Completion: criterion met

Now examine the next entry.
Prompt: Reported pIC50 reaches at least 8 for Nc1nc2c(-c3c(C(F)(F)F)cc4c(NC5CCC(F)C5)nc(OC[C@@]56CCCN5C[C@H](F)C6)nc4c3F)ccc(F)c2s1 (stereo in doubt) ?
Completion: criterion not met
